Collected IC50 values appear next to each entry.
- EXPERIMENTAL TARGET: TLR7/NFKb HEK cells (Homo sapiens)
- Sequence (Q9NYK1 27-1049): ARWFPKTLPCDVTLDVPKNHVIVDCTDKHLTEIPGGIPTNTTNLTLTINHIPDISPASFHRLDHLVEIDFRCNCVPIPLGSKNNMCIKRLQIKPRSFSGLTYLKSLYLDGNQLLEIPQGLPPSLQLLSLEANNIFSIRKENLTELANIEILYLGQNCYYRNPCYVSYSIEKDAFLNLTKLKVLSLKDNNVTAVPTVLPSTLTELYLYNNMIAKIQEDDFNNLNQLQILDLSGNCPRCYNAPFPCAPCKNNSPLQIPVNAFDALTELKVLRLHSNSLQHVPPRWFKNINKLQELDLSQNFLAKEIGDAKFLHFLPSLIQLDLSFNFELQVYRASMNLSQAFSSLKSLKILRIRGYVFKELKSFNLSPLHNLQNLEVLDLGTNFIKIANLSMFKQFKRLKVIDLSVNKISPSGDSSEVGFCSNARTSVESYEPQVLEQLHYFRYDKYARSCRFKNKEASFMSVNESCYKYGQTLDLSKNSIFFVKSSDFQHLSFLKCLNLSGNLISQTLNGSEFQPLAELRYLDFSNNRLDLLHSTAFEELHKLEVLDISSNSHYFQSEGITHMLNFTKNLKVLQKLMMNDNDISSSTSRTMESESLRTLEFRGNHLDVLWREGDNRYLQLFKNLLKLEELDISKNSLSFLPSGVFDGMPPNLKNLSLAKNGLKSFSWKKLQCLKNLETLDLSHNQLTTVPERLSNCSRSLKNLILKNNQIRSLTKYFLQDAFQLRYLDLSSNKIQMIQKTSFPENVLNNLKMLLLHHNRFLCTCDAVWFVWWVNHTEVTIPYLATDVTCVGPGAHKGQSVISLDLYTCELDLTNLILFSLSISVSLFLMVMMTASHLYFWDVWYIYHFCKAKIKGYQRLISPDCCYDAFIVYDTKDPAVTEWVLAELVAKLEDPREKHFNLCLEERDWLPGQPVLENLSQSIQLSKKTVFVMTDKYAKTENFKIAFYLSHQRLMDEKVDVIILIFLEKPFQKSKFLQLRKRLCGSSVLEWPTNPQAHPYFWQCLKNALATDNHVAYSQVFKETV
- EXPERIMENT SUMMARY: HEK Cell Assay (TLR7/NFKb reporter, Steady-Glo luciferase readout)
- CONDITION SET: 30 min compound preincubation, then R*48 agonist for 5 hours, read-out: Potency
Where a name gives a salt, the structure may show the parent alone.

As a guide, the following entries are already answered.
COMPOUND	IC50
C[C@H]1C[C@@H](NC(=O)CN2CCC(F)(F)CC2)CN(c2ccc(C(F)(F)F)c3nccnc23)C1	1000 to 10000 nM
CN1CCCC1C(=O)NCC1CCN(c2ccnc3nccnc23)CC1 (stereo not shown)	1000 to 10000 nM
CC(C)(C)CC(=O)N[C@H]1C[C@@H](C(F)(F)F)CN(c2ccc(C#N)c3nccnc23)C1 (relative stereo)	< 1000 nM

Input C[C@H]1C[C@@H](NC(=O)C(N)C2CC2)CN(c2ccc(C(F)(F)F)c3ncccc23)C1 (stereo partly shown) . Output IC50: < 1000 nM

Input CC(C(=O)N[C@@H]1C[C@H](C)CN(c2ccc(C(F)F)c3ncccc23)C1)N1CC(N)C1 (stereo partly shown) . Output IC50: < 1000 nM

Input C[C@H]1C[C@@H](NC(=O)C(N)C(F)(F)F)CN(c2ccc(C#N)c3nccnc23)C1 (single isomer, unassigned) [Compound 113, hydrochloride] . Output IC50: < 1000 nM

Input C[C@@H]1C[C@@H](C(=O)NCC2CCN(C)CC2)CN(c2ccc(C(F)(F)F)c3ncccc23)C1 (relative stereo) . Output IC50: < 1000 nM

Origin of values: patent US10947213B1
